Study the reported pIC50 values for Leucine-rich repeat serine/threonine-protein kinase 2 (Homo sapiens, UniProt Q5S007) given below; they originate from different publications.
pIC50: −log10 of the molar value.

For orientation, consider the following solved cases.
COMPOUND | pIC50
CCNc1cc(Nc2ccc(S(=O)(=O)N3CCC(N4CCOCC4)CC3)c3c2OCCO3)nc2[nH]cc(C(F)(F)F)c12 | > 7.00
Cc1cncc(-c2cc(Nc3nn(C)cc3C(F)(F)F)nc3[nH]cc(C#N)c23)c1 | 6.45
CCNc1cc(Nc2ccc(C(=O)N3CCC(N4C[C@@H]5C[C@H]4CO5)CC3)c3c2OCC3)nc2[nH]cc(C(F)(F)F)c12 | > 7.00
CCNc1cc(Nc2ccc(S(C)(=O)=O)cc2OC)nc2[nH]cc(C(F)(F)F)c12 | 6.00 to 6.52
CCc1nn(C2CCN(C(C)C)CC2)cc1Nc1ncc(C2CC2)c(NCCCN2CCOCC2=O)n1 | < 6.22

Can you look up the measured pIC50 of "Cc1c(F)ccc(F)c1-c1ccc2nc(NC(=O)[C@@H]3C[C@@H]3F)cn2c1" for me?
6.00 to 7.00

Can you look up the measured pIC50 of "COc1cc(S(=O)(=O)N2CCOCC2)ccc1Nc1cc(NCCS(C)(=O)=O)c2c(C(F)(F)F)c[nH]c2n1" for me?
6.52 to 7.00

---

Study the reported IC50 values for Leucine-rich repeat serine/threonine-protein kinase 2 (Homo sapiens, UniProt Q5S007) given below; they originate from different publications.

COMPOUND | SYSTEM UNDER TEST | EXPERIMENTAL RESULT
Cc1nn(C2CCN(C)CC2)cc1Nc1ncc(C(F)(F)F)c(NCCCN2CCCCC2=O)n1 | Leucine-rich repeat serine/threonine-protein kinase 2 (Homo sapiens, UniProt Q5S007) | 100 to 300 nM
COc1ccncc1-c1ccc2nc(NC(=O)[C@@H]3C[C@@H]3F)cn2c1 | Leucine-rich repeat serine/threonine-protein kinase 2 (Homo sapiens, UniProt Q5S007) | 10 to 100 nM
Cc1ccnc(-c2cc(Nc3nn(C)cc3Cl)nc3[nH]cc(C#N)c23)c1 | Leucine-rich repeat serine/threonine-protein kinase 2 (Homo sapiens, UniProt Q5S007) | 145 nM

Fill in the recorded IC50 for this compound, with Leucine-rich repeat serine/threonine-protein kinase 2 (Homo sapiens, UniProt Q5S007) as test system: "CN(C)CCNc1cc(Nc2ccc(C(=O)N3CCC(N4CCOCC4)CC3)c3c2OCCO3)nc2[nH]cc(C(F)(F)F)c12"
< 100 nM

Fill in the recorded IC50 for this compound, with Leucine-rich repeat serine/threonine-protein kinase 2 (Homo sapiens, UniProt Q5S007) as test system: "Cc1nn(C(C)(C)C(N)=O)cc1Nc1ncc(C(F)(F)F)c(NCCCN2CCCOCC2=O)n1"
1 to 100 nM

Fill in the recorded IC50 for this compound, with Leucine-rich repeat serine/threonine-protein kinase 2 (Homo sapiens, UniProt Q5S007) as test system: "CN(C)C1CN(c2ccc(Nc3ncc(Br)c(NCCCN4CCCCC4=O)n3)c(C3CC3)c2)C1"
1 to 100 nM

Fill in the recorded IC50 for this compound, with Leucine-rich repeat serine/threonine-protein kinase 2 (Homo sapiens, UniProt Q5S007) as test system: CC(C)Oc1nn(C(C)C#N)cc1Nc1ncc2cc(C#N)n([C@@H]3COC[C@@H]3C)c2n1 (single isomer, unassigned)
5 nM
